biological target: NAD-dependent protein deacetylase sirtuin-2 (Homo sapiens); assay: Inhibition of recombinant GST-tagged sirtuin-2 (unknown origin) using KI179 as substrate at 200 uM after 1 hr by fluorescence assay
READOUT_KIND: inhibition (%)

[I] COC(=O)CCCC1CC(=O)c2cc(Cl)cc(Br)c2O1 (stereo unspecified)
[II] O=C(CCCC1CC(=O)c2cc(Cl)cc(Br)c2O1)NCc1ccccc1 (stereo unspecified)
Request: I would appreciate it if you could say which entry, I or II , has the lower inhibition value. Selection: enter the item's label.
Response: II
(II: 39%, I: 90%)

[I] COC(=O)CCC1CC(=O)c2cc(Cl)cc(Br)c2O1 (stereo unspecified)
[II] N#Cc1c(CCc2ccccc2)oc2c(Br)cc(Cl)cc2c1=O
[III] O=C(O)CCC1CC(=O)c2cc(Cl)cc(Br)c2O1 (stereo unspecified)
Request: Ascending by inhibition, please: list the compounds accordingly. Lab note: final answer is the ordered label list.
Response: III, II, I
(III: 6.8%, II: 50%, I: 80%)
